tested on: Plasmodium falciparum; assay: Antimalarial activity against chloroquine, mefloquine and pyrimethamine-resistant Plasmodium falciparum TM91C235; type: functional
The entries below come with measured IC90 values attached.
attributeMeasured: IC90

[[record]]
compound = "OC(c1cc(C(F)(F)F)nc2c(C(F)(F)F)cccc12)C1CCCCN1 (centres undefined) [MEFLOQUINE]"
result = "0.053 µg/mL"

[[record]]
compound = "O[C@H](CNCCNC1CC1)c1cc(C(F)(F)F)nc2c(C(F)(F)F)cccc12"
result = "0.077 µg/mL"

[[record]]
compound = "O[C@@H](CNCCNC1CC1)c1cc(C(F)(F)F)nc2c(C(F)(F)F)cccc12"
result = "0.103 µg/mL"

[[record]]
compound = "CCN(CC)CCCC(C)Nc1ccnc2cc(Cl)ccc12 (centres undefined) [CHLOROQUINE]"
result = "0.089 µg/mL"


---

tested on: Plasmodium falciparum; experiment: Antimalarial activity against chloroquine-resistant and mefloquine-sensitive Plasmodium falciparum W2 assessed as inhibition of [3H]hypoxanthine incorporation by liquid scintillation spectrometry; assay type: functional
Below, each of the compounds is paired with its reported IC90 value.
attributeMeasured: IC90

[[record]]
compound = "CC(CCN1CCOCC1)NCC(O)c1cc(C(F)(F)F)nc2c(C(F)(F)F)cccc12 (centres undefined)"
attributemeasured = "IC90"
result = "0.011 µg/mL"

[[record]]
compound = "OC(CNCC1CCNC1)c1cc(C(F)(F)F)nc2c(C(F)(F)F)cccc12 (centres undefined)"
attributemeasured = "IC90"
result = "2.04 µg/mL"

[[record]]
compound = "OC(CNCCNCc1ccncc1)c1cc(C(F)(F)F)nc2c(C(F)(F)F)cccc12 (centres undefined)"
attributemeasured = "IC90"
result = "0.47 µg/mL"

[[record]]
compound = "CC1CCN(CC(C)(C)NCC(O)c2cc(C(F)(F)F)nc3c(C(F)(F)F)cccc23)CC1 (centres undefined)"
attributemeasured = "IC90"
result = "0.007 µg/mL"


---

assay: Apparent permeability from apical to basolateral side of dog MDCK cells at 5 uM after 2 hrs by LC/MS/MS analysis; assay type: ADME, cell-based, Canis lupus familiaris
Reported Papp A→B at 2 h, 5 µM values for a set of compounds
attributeMeasured: Papp A→B at 2 h, 5 µM (×10⁻⁶ cm/s)

[[record]]
compound = "CCCCNCCNCC(O)c1cc(C(F)(F)F)nc2c(C(F)(F)F)cccc12 (stereo not given)"
attributemeasured = "Papp A→B at 2 h, 5 µM"
numericvalue = 5.9

[[record]]
compound = "NCCNCC(O)c1cc(C(F)(F)F)nc2c(C(F)(F)F)cccc12 (stereo not given)"
attributemeasured = "Papp A→B at 2 h, 5 µM"
numericvalue = 3.1

[[record]]
compound = "CC(CN1CC2CCC1C2)NCC(O)c1cc(C(F)(F)F)nc2c(C(F)(F)F)cccc12 (stereo not given)"
attributemeasured = "Papp A→B at 2 h, 5 µM"
numericvalue = 18.8

[[record]]
compound = "CC(C)N(C)CCNCC(O)c1cc(C(F)(F)F)nc2c(C(F)(F)F)cccc12 (stereo not given)"
attributemeasured = "Papp A→B at 2 h, 5 µM"
numericvalue = 9.03

[[record]]
compound = "OC(CNCCNCc1ccccc1)c1cc(C(F)(F)F)nc2c(C(F)(F)F)cccc12 (stereo not given)"
attributemeasured = "Papp A→B at 2 h, 5 µM"
numericvalue = 8.5

[[record]]
compound = "CN(CCN)CC(O)c1cc(C(F)(F)F)nc2c(C(F)(F)F)cccc12 (stereo not given)"
attributemeasured = "Papp A→B at 2 h, 5 µM"
numericvalue = 4.9

[[record]]
compound = "NCCN(Cc1ccccc1)CC(O)c1cc(C(F)(F)F)nc2c(C(F)(F)F)cccc12 (stereo not given)"
attributemeasured = "Papp A→B at 2 h, 5 µM"
numericvalue = 9.06

[[record]]
compound = "OC(CNCCNC1CCCCC1)c1cc(C(F)(F)F)nc2c(C(F)(F)F)cccc12 (stereo not given)"
attributemeasured = "Papp A→B at 2 h, 5 µM"
numericvalue = 2.7

[[record]]
compound = "OC(CNCCN1CC2CCC1C2)c1cc(C(F)(F)F)nc2c(C(F)(F)F)cccc12 (stereo not given)"
attributemeasured = "Papp A→B at 2 h, 5 µM"
numericvalue = 14.2

[[record]]
compound = "CN(CCNCC(O)c1cc(C(F)(F)F)nc2c(C(F)(F)F)cccc12)C1CCCC1 (stereo not given)"
attributemeasured = "Papp A→B at 2 h, 5 µM"
numericvalue = 17

